assay: soluble on expression in E. coli; label from the status in PepcDB or PDB records
MEASUREMENT_NAME: soluble on expression in E. coli

INPUT_SEQUENCE	MEASUREMENT_NAME	REPORTED_MEASUREMENT
MSLKKDIIILGIESSCDDTSAAVVRNETMLSNVIAGQAVHKAYGGVVPELASRAHQQNIVPVVSEAIKRAGIRKEEIDAIAFTRGPGLLGSLLVGTSFAKGLSLSLGIPMLEVNHLHAHVLANFLREPGEESQHPSFPFLCLLVSGGNSQIILVRSPYDMEVIGQTIDDAAGEAFDKCAKVMGLGYPGGPIVNKLASEGNPDAFRFARPHVSGYDYSFSGLKTSFLYTLRDKLAEDPDFIEKNKADLCASLQHTVIDILMKKLRQAAKDHSIKQVALAGGVSANTGLRDAFHDHARRYGWTVFIPKFAYTTDNAAMVAISGYYKYLQGDFCPIDAVPFSRITVEGHHHHHH	soluble on expression in E. coli	soluble
MTQTASLFLQDSYREECLARITDVVEDGLLLDQTVFYPQGGGQAGDSGWLTLADGTRLRIADTRKGTEAGAGRDAILHIPAEGQATVLRAMKPGEVVLAQIDWVRRYRHMRLHTAAHMLCAVLPYPVNGCSITDEHARLDFVTSEPLSREAIDSALAAMVEAAHPVSIDTMSDDALRARPDLVRTMSVQPPMGAGQVRLVSIKDTDLQPCGGTHVANTEEVGVVRVSKMEKKSARTRRVVLVLG	soluble on expression in E. coli	not soluble
MSLQVTDVEIAQYYQDNKAQFMTQHLAHIQFANEQDAKVAYEELQKGANFADVAKAKSLDKISGENGGDLGWVNENELPKAFEDAAAALQVGQYSQPINVDGNYHIVLVQERKAQSLENVKAQIADLVRKSLMESRYFSLEKQASDKAFEDSKSLNTAAQAAGVKVQESDYFSRQNVPAGLNFPNVIYTIFESDTTNVGMNSEPINVGDYHTIIVRVLDRKAEGVKSLEEAKIDIETFLKRQKAENALNGKAQQAVKKLSENPESKVDGINFSSEQTFTLSENKDPILTNGIFSIAKPESSKALYQVVHNSNGDVVVVALNKVEQGSLSEKELSQFAMQLLRSHQSELQVQLIQGLRERAKIEVNDSFINQDDEAQEGHHHHHH	soluble on expression in E. coli	soluble
MQTLQEILQQPELENKLLNQAKTVGFVTAMACCPNVLPPEEWLPFLWGGEEIAPFSDPIQLENYFEHIIALWNETRSQLLEGNWQWPTGYLLDEAEIVNQEVRDFCEGMLQGWQLARDDWEVLMPENSSDNTLLGGVLLSLSMLYDPETSIATLYEQGFTGLEQFAEIYHAIPVMLCGITQRGVTLAEAQ	soluble on expression in E. coli	not soluble
MQIRFAGIGGQGVVLAGVILGEAAAIEGLRVLQTQDYSSASRGGHSIADVIISNEEIYDVMVTEADVLVALHQLGYETAKSKLKKDGILIIDTDLVKPDREYIGAPFTRIAEETTGLALTVNMVALGYLIGKTQIVKPESVEEAIRRRVPKGTEEINIKAFRKGLEVSMNE	soluble on expression in E. coli	not soluble
MDNSVMLDYLAVTIKGLAPDDVIEKILILPKDKFVLNEWGINKYQRHYSFSEIKVYFNKDWQSKMGVFIELRGQGCRQYEEYMENNVNNWVTLMKRISECHSNVTRLDIANDIFDDSLSVPLIYSYCKKQLCISTAKTFDYHEKSLLENGEKVGEMVTIGVRGTQQWCVYNKLLEQKLDQELPNTPLSWTRAELRCWQEKANLLAKQIKEGRPLKEIYFEVINGHYRFVSPRDKDSNRWRRKTVKWWNDYLETQEKTVLSVKRTKPTLKRSEKWTEKQVSRTLGKLYVAKAESHGQEKADSYIQHLLELGISKLTETDETDIQQYKQEQLSSAYWGIRKDDL	soluble on expression in E. coli	not soluble
